# target.or.system: Aβ42 (Homo sapiens, UniProt P05067)
# Sequence (P05067 672-713): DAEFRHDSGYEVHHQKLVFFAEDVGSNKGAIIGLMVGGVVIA
# test.details: Th-T (thioflavin-T) assay of Aβ42 aggregation
# Format: biochemical
# particulars: measurement M15; source data, Ab alone and No Ab as controls
Task for the reader: assign each of the following molecules its reported Th-T assay plate reading, mean of three wells (Supplementary Fig. 47).
Quick one: just the number, no unit, thanks!

Entry C=C1CC[C@@H]2[C@](C)(CC[C@H]3O[C@H](C=C(C)C)C[C@@]23C)[C@@H]1Cc1c(OC)oc(CO)c(C)c1=O ; Th-T assay plate reading, mean of three wells (Supplementary Fig. 47) = 3.243

Sure, the documented Th-T assay plate reading, mean of three wells (Supplementary Fig. 47) for C=C1CCC2C(C)(CCC=C(C)C)C(O)CCC2(C)C1Cc1c(O)c(C)c(C)oc1=O (stereo not shown) [Compound 9, higginsianin B] is 0.7748

Form: molecule = C=C1CC[C@H]2[C@]3(C)C[C@H](C=C(C)C)O[C@H]3CC[C@]2(C)[C@@H]1Cc1c(OC)oc(CO)c(C)c1=O ; Th-T assay plate reading, mean of three wells (Supplementary Fig. 47) = 3.082

Measured Th-T assay plate reading, mean of three wells (Supplementary Fig. 47), C=C1CCC2C3(C)CC(C=C(C)C)OC3CCC2(C)C1Cc1c(OC)oc(C)c(C)c1=O (stereo not shown) : 2.988

---

Give Th-T assay signal, mean of three wells (Fig. 7a) for every item shown.
# target.or.system: Aβ42 (Homo sapiens, UniProt P05067)
# test.details: Th-T (thioflavin-T) assay of Aβ42 aggregation
# Assay type: biochemical
# particulars: column suffix _10; reading M7
Give the value as a plain number.

Kindly note the recorded Th-T assay signal, mean of three wells (Fig. 7a) for C=C1CCC2C(C)(CCC=C(C)C)C(O)CCC2(C)C1Cc1c(OC)oc(C)c(C(=O)OC)c1=O (centres unmarked) [Compound 14] , which is 0.3327

Lookup result for C=C1CC[C@@H]2[C@](C)(CC[C@H]3O[C@H](C=C(C)C)C[C@@]23C)[C@@H]1Cc1c(OC)oc(CO)c(C(=O)OC)c1=O [Compound 21] ; measured Th-T assay signal, mean of three wells (Fig. 7a): 0.2237

Memo: C=C1CCC2C(C)(CCC=C(C)C)C(O)CCC2(C)C1Cc1c(OC)oc(CO)c(C(=O)OC)c1=O (centres unmarked) [Compound 13] , reported Th-T assay signal, mean of three wells (Fig. 7a): 0.2403

Short answer for C=C1CCC2C(C)(CCC=C(C)C)C(O)CCC2(C)C1Cc1c(OC)oc(CO)c(C)c1=O (centres unmarked) [Compound 12] : Th-T assay signal, mean of three wells (Fig. 7a) was 0.3868

Entry C=C1CC[C@@H]2[C@](C)(CC[C@H]3O[C@H](C=C(C)C)C[C@@]23C)[C@@H]1Cc1c(OC)oc(CO)c(C)c1=O [Compound 20] ; Th-T assay signal, mean of three wells (Fig. 7a) = 0.5173

---

# target.or.system: Aβ42 (Homo sapiens, UniProt P05067)
# test.details: Th-T (thioflavin-T) assay of Aβ42 aggregation
# Format: biochemical
# particulars: column suffix _20; reading M12
Mark each entry satisfied if its Th-T assay signal, mean of three wells (Fig. 7a) sits below 0.4, and not satisfied for all others.

# input I'd appreciate it if you could check whether C=C1CC[C@@H]2[C@](C)(CC[C@H]3O[C@H](C=C(C)C)C[C@@]23C)[C@@H]1Cc1c(OC)oc(CO)c(C(=O)OC)c1=O has Th-T assay signal, mean of three wells (Fig. 7a) smaller than 0.4.
# output satisfied

# input Consider C=C1CCC2C(C)(CCC=C(C)C)C(O)CCC2(C)C1Cc1c(OC)oc(C)c(C(=O)OC)c1=O (centres unmarked) . Does its Th-T assay signal, mean of three wells (Fig. 7a) lie strictly below 0.4?
# output not satisfied

# input API: query returns whether the compound falls strictly under 0.4 in Th-T assay signal, mean of three wells (Fig. 7a). Query: C=C1CCC2C(C)(CCC=C(C)C)C(O)CCC2(C)C1Cc1c(OC)oc(CO)c(C(=O)OC)c1=O (centres unmarked)
# output satisfied

# input Problem: For the compound C=C1CCC2C(C)(CCC=C(C)C)C(O)CCC2(C)C1Cc1c(OC)oc(CO)c(C)c1=O (centres unmarked) , is Th-T assay signal, mean of three wells (Fig. 7a) under 0.4?
# output not satisfied

# input Given C=C1CC[C@@H]2[C@](C)(CC[C@H]3O[C@H](C=C(C)C)C[C@@]23C)[C@@H]1Cc1c(OC)oc(CO)c(C)c1=O , is recorded Th-T assay signal, mean of three wells (Fig. 7a) strictly lower than 0.4?
# output not satisfied
